Catalogue of Post-emergence action against ORYSA in % readings, one per entry.
Test system: Oryza sativa (ORYSA)
Type: in vivo
condition_description: crop plant compatibility, 80 g/ha, effect in comparison to untreated controls
The reply should contain only the number, in %.

CCOC(=O)COc1nn(-c2nc(F)ccc2F)c(-c2ccc(F)nc2)c1Br = 10
C#CCOC(=O)COc1nn(-c2ccccn2)c(-c2ccc(F)nc2)c1Br = 20
O=C(COc1nn(-c2ncccc2F)c(-c2ccc(F)nc2)c1C1CC1)OCC1CCOC1 (centres unmarked) = 10
COC(=O)C(C)NC(=O)C(C)Oc1nn(-c2ccccn2)c(-c2ccc(F)nc2)c1Br (centres unmarked) = 20
COC(=O)C(C)OC(=O)C(C)Oc1nn(-c2ccccn2)c(-c2cncc(F)c2)c1Br (mixture of isomers) = 10

Observed Post-emergence action against ORYSA in %, Oryza sativa (ORYSA), COC(=O)CNC(=O)COc1nn(-c2cccc(C)n2)c(-c2ccc(F)nc2)c1Br : 0

Observed Post-emergence action against ORYSA in %, Oryza sativa (ORYSA), COC(=O)C(C)COC(=O)[C@@H](C)Oc1nn(-c2ccccn2)c(-c2cncc(F)c2)c1Br (some centres unmarked) : 20

Observed Post-emergence action against ORYSA in %, Oryza sativa (ORYSA), C[C@@H](Oc1nn(-c2ncccc2F)c(-c2ccc(F)nc2)c1Br)C(=O)O [Example I-18] : 10

====

Catalogue of Post-emergence action against ZEAMX in % readings, one per entry.
Test system: Zea mays (ZEAMX)
Type: in vivo
condition_description: crop plant compatibility, 320 g/ha, effect vs untreated controls
The reply should contain only the number, in %.

Known Post-emergence action against ZEAMX in % results, listed for orientation:
CCOC(=O)COc1nn(-c2ncccc2C(F)(F)F)c(-c2ccc(F)nc2)c1Br = 20
COC(=O)CNC(=O)COc1nn(-c2cccnc2C)c(-c2cncc(F)c2)c1Br = 0
CCOC(=O)COc1nn(-c2ncccc2OC)c(-c2ccc(F)nc2)c1Br = 20

# evaluate next
Kindly note the recorded Post-emergence action against ZEAMX in % for CCOC(=O)COc1nn(-c2ccc(Br)c(C)n2)c(-c2cncc(F)c2)c1Br , which is 10

====

Tested on: Polygonum convolvulus (POLCO)
assay_procedure: Pre-emergence herbicidal action against POLCO
Type: in vivo
condition_description: dosage 320 g/ha
experimental_endpoint: Pre-emergence action against POLCO in %

COC(=O)[C@@H](C)Oc1nn(-c2nc(F)ccc2F)c(-c2cncc(F)c2)c1Br = 90%
O=C(O)COc1nn(-c2nc(F)ccc2F)c(-c2ccc(F)nc2)c1Br = 90%
COCCOC(=O)COc1nn(-c2ncccc2C(F)(F)F)c(-c2cncc(F)c2)c1Br = 90%

Kindly note the recorded Pre-emergence action against POLCO in % for CCOC(=O)[C@@H](C)Oc1nn(-c2ncccc2F)c(-c2ccc(F)nc2)c1C(F)(F)F , which is 100%

====

Catalogue of Post-emergence action against PHBPU in % readings, one per entry.
System: Pharbitis purpurea (PHBPU)
assay_procedure: Post-emergence herbicidal action against PHBPU
Format: in vivo
condition_description: dosage 320 g/ha
The reply should contain only the number, in %.

CCOC(=O)COc1nn(-c2ccccn2)c(-c2ccnc(F)c2)c1Br [Example I-01] = 80

Kindly note the recorded Post-emergence action against PHBPU in % for COC(=O)COc1nn(-c2ncccc2C(F)(F)F)c(-c2cncc(F)c2)c1Br [Example I-206] , which is 90

Kindly note the recorded Post-emergence action against PHBPU in % for C=Cc1c(OCC(=O)OCC)nn(-c2ccccn2)c1-c1ccc(F)nc1 [Example I-273] , which is 90

Kindly note the recorded Post-emergence action against PHBPU in % for COC(=O)[C@@H](C)COC(=O)COc1nn(-c2ccccn2)c(-c2cncc(F)c2)c1Br [Example I-194] , which is 90

Kindly note the recorded Post-emergence action against PHBPU in % for CCOC(=O)CNC(=O)COc1nn(-c2ncccc2F)c(-c2ccc(OC)nc2)c1Br [Example I-48] , which is 90

Kindly note the recorded Post-emergence action against PHBPU in % for CCOC(=O)COc1nn(-c2ncccc2F)c(-c2cncc(F)c2)c1C1CC1 [Example I-174] , which is 90

Kindly note the recorded Post-emergence action against PHBPU in % for C[C@@H](Oc1nn(-c2ccccn2)c(-c2cncnc2)c1Cl)C(=O)O [Example I-20] , which is 90

Kindly note the recorded Post-emergence action against PHBPU in % for COC(=O)COc1nn(-c2ncccc2F)c(-c2cncc(F)c2)c1Br [Example I-16] , which is 90

====

Tested on: Oryza sativa (ORYSA)
Assay type: in vivo
condition_description: crop plant compatibility, 320 g/ha, effect in comparison to untreated controls
experimental_endpoint: Post-emergence action against ORYSA in %
Number plus unit, in that order.

C[C@@H](Oc1nn(-c2ncccc2F)c(-c2ccc(F)nc2)c1Br)C(=O)O [Example I-18] = 20%
CCOC(=O)COc1nn(-c2ccccn2)c(-c2cncc(F)c2)c1Cl [Example I-147] = 0%
O=C(O)CSc1nn(-c2ccccn2)c(-c2ccc(F)nc2)c1Br [Example I-69] = 10%
COCCOC(=O)COc1nn(-c2cccnc2C)c(-c2cncc(F)c2)c1Br [II-40] = 0%

# evaluate next
Kindly note the recorded Post-emergence action against ORYSA in % for CCOC(=O)COc1nn(-c2ncccc2OC)c(-c2ccc(F)nc2)c1I [Example I-386] , which is 0%

====

Catalogue of Post-emergence action against ALOMY in % readings, one per entry.
System: Alopecurus myosuroides (ALOMY)
assay_procedure: Post-emergence herbicidal action against ALOMY
Format: in vivo
condition_description: 80 g/ha, visual rating about 3 weeks after treatment vs untreated controls (100% = plants have died, 0% = like control plants)
The reply should contain only the number, in %.

CCOC(=O)COc1nn(-c2nc(F)ccc2F)c(-c2ccc(F)nc2)c1C1CC1 [Example I-348] = 80
COCCOC(=O)[C@@H](C)Oc1nn(-c2ncccc2F)c(-c2ccc(F)nc2)c1Br [Example I-35] = 90
CCOC(=O)COc1nn(-c2ccccn2)c(-c2ccc(F)nc2)c1Br [Example I-02] = 80
COC(=O)CCOC(=O)COc1nn(-c2ccccn2)c(-c2ccc(F)nc2)c1Br [Example I-116] = 90
COC(=O)[C@@H](C)Oc1nn(-c2ncccc2F)c(-c2ccc(F)nc2)c1C1CC1 [Example I-307] = 100

Kindly note the recorded Post-emergence action against ALOMY in % for COC(=O)C(C)COC(=O)[C@@H](C)Oc1nn(-c2ccccn2)c(-c2cncc(F)c2)c1Br (some centres unmarked) [Example I-188] , which is 80

Kindly note the recorded Post-emergence action against ALOMY in % for C[C@@H](Oc1nn(-c2ccccn2)c(-c2cncnc2)c1Cl)C(=O)O [Example I-20] , which is 100

Kindly note the recorded Post-emergence action against ALOMY in % for CCOC(=O)COc1nn(-c2ncccc2C(F)(F)F)c(-c2ccc(F)nc2)c1Cl [Example I-325] , which is 80

====

Catalogue of Post-emergence action against ORYSA in % readings, one per entry.
Tested on: Oryza sativa (ORYSA)
Type: in vivo
condition_description: crop plant compatibility, 80 g/ha, effect in comparison to untreated controls
The reply should contain only the number, in %.

Kindly note the recorded Post-emergence action against ORYSA in % for COC(=O)C(C)COC(=O)C(C)Oc1nn(-c2ccccn2)c(-c2ccc(F)nc2)c1Cl (stereo not shown) , which is 0

Kindly note the recorded Post-emergence action against ORYSA in % for COC(=O)C(C)COC(=O)COc1nn(-c2ccccn2)c(-c2cncc(F)c2)c1Cl (stereo not shown) , which is 20

Kindly note the recorded Post-emergence action against ORYSA in % for COC(=O)COc1nn(-c2ncccc2C)c(-c2cncc(F)c2)c1Br , which is 20

Kindly note the recorded Post-emergence action against ORYSA in % for Cc1ncccc1-n1nc(OCC(=O)O)c(Br)c1-c1cncc(F)c1 , which is 0

Kindly note the recorded Post-emergence action against ORYSA in % for C[C@@H](Oc1nn(-c2ncccc2F)c(-c2ccc(F)nc2)c1I)C(=O)O , which is 10

Kindly note the recorded Post-emergence action against ORYSA in % for C[C@H](NC(=O)COc1nn(-c2ccccn2)c(-c2cncc(F)c2)c1Br)C(=O)O , which is 20

Kindly note the recorded Post-emergence action against ORYSA in % for CCOC(=O)COc1nn(-c2ncccc2F)c(-c2ccnc(F)c2)c1I , which is 10

Kindly note the recorded Post-emergence action against ORYSA in % for O=C(O)COc1nn(-c2ncccc2C(F)(F)F)c(-c2cncc(F)c2)c1Br , which is 0

====

Tested on: Brassica napus (BRSNW)
Type: in vivo
condition_description: 80 g/ha, crop plant compatibility, in comparison to untreated controls
experimental_endpoint: Pre-emergence action against BRSNW in % (%)
The reply should contain only the number, in %.

Kindly note the recorded Pre-emergence action against BRSNW in % for Cc1cccc(-n2nc(OCC(=O)O)c(Cl)c2-c2ccc(F)nc2)n1 [Example I-351] , which is 20

Kindly note the recorded Pre-emergence action against BRSNW in % for CCOC(=O)CCNC(=O)CSc1nn(-c2ccccn2)c(-c2cncc(F)c2)c1Br [Example I-82] , which is 20

Kindly note the recorded Pre-emergence action against BRSNW in % for COC(=O)[C@@H](C)Oc1nn(-c2ncccc2Cl)c(-c2ccc(F)nc2)c1Br [Example I-24] , which is 20

Kindly note the recorded Pre-emergence action against BRSNW in % for COC(=O)C1CCCN(C(=O)COc2nn(-c3ccccn3)c(-c3ccc(F)nc3)c2Br)C1 (stereo not shown) [Example I-108] , which is 10

Kindly note the recorded Pre-emergence action against BRSNW in % for COC(=O)[C@@H](C)Oc1nn(-c2cccnc2F)c(-c2ccc(F)nc2)c1Br [II-36] , which is 0

Kindly note the recorded Pre-emergence action against BRSNW in % for COC(=O)CCOC(=O)COc1nn(-c2ncccc2C(F)(F)F)c(-c2ccc(F)nc2)c1Br [Example I-381] , which is 0

Kindly note the recorded Pre-emergence action against BRSNW in % for COCCOC(=O)COc1nn(-c2ncccc2C(F)(F)F)c(-c2ccc(F)nc2)c1Br [Example I-378] , which is 0

Kindly note the recorded Pre-emergence action against BRSNW in % for COC(=O)COc1nn(-c2ncccc2OC)c(-c2ccc(F)nc2)c1Cl [Example I-346] , which is 0

Kindly note the recorded Pre-emergence action against BRSNW in % for CCOC(=O)COc1nn(-c2ccnc(F)c2)c(-c2ccc(F)nc2)c1Br [III-01] , which is 0

Attribution: patent US20240041042A1
